Origin of the recorded values: PubChem BioAssay

# protocol-details: inhibitors of CMV-promoter luciferase reporter, dose response, counter-screen for Pax8 inhibitor project, cell-based, HEK293, luminescence, dry powder (AID 743020);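 further: HEK293 cells stably expressing the CMV luciferase reporter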
# conditions-used: SteadyGlo luminescence, 24 h; series mostly up to 35 µM
Measured potencies and affinities stand elsewhere. Results filed as inconclusive are left out. Calls of active or inactive are those of the source.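 How the source made its calls: active means signal-lowering compounds whose fitted half-maximal concentration is at or below twice the top tested dose in every run; inconclusive means runs disagree, flat 30 to 70% inhibition, or poor curve fit; inactive means the rest.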
property-name: activity change, negative = inhibition

C[C@@H]1CCCCO[C@@H](CN(C)C(=O)C2CCCCC2)[C@H](C)CN([C@H](C)CO)C(=O)c2cc(NS(=O)(=O)c3ccc(Cl)cc3)ccc2O1 : inactive
C[C@@H]1CN([C@H](C)CO)C(=O)c2cc(NS(=O)(=O)c3ccc(Cl)cc3)ccc2O[C@@H](C)CCCCO[C@@H]1CN(C)Cc1ccc(Cl)c(Cl)c1 : inactive
COc1cccc(S(=O)(=O)Nc2ccc3c(c2)[C@H]2C[C@H](CC(=O)NCc4ccccc4F)O[C@H](CO)[C@H]2O3)c1 : inactive
